# Method Notes: Pharmacokinetics of fluorocoxib D in research dogs, plasma HPLC
# Type: in vivo, dog
# Details: female, beagle, dog, plasma, iv; 1 mg/kg i.v. over 20 min, six research dogs, mean ± S.D.
Endpoint Name: Cmax
Phrase the answer as number then unit, nothing more needed.

Query (compound): COc1ccc2c(c1)c(CC(=O)NCCCCNC(=O)c1ccc(C3=c4cc5c6c(c4Oc4c3cc3c7c4CCCN7CCC3)CCC[N+]=6CCC5)cc1)c(C)n2C(=O)c1ccc(Cl)cc1 ; field requested: Cmax
110 ng/mL

###

# Method Notes: Pharmacokinetics of fluorocoxib D in research dogs, plasma HPLC
# Format: in vivo, dog
# Details: female, beagle, dog, plasma, iv; 1 mg/kg i.v., six research dogs, mean ± S.D.; read-out: Cl (clearance) (converted)
Endpoint Name: clearance (mL/min/kg)
Dear colleague, please return just the value in mL/min/kg, with no unit written.

Query (compound): COc1ccc2c(c1)c(CC(=O)NCCCCNC(=O)c1ccc(C3=c4cc5c6c(c4Oc4c3cc3c7c4CCCN7CCC3)CCC[N+]=6CCC5)cc1)c(C)n2C(=O)c1ccc(Cl)cc1 ; field requested: clearance
123

###

# Method Notes: Pharmacokinetics of fluorocoxib D in research dogs, plasma HPLC
# Type: in vivo, dog
# Details: female, beagle, dog, plasma, iv; 1 mg/kg i.v., six research dogs, mean ± S.D.; read-out: AUC0-8
# Method: The animal studies were performed in the accordance with the University of Tennessee Institutional Animal Care and Use Committee (UT IACUC)-approved protocols and in an accordance with NIH guidelines. […] Levels of fluorocoxib D were determined in collected canine plasma samples using HPLC at Vanderbilt University (JU). […] Samples were analyzed using a reverse-phase column (C18, 5×0.2 cm , Phenomenex) with gradient elution. […]
Endpoint Name: AUC(0-t) (ng·h/mL)
Dear colleague, please return just the value in ng·h/mL, with no unit written.

Query (compound): COc1ccc2c(c1)c(CC(=O)NCCCCNC(=O)c1ccc(C3=c4cc5c6c(c4Oc4c3cc3c7c4CCCN7CCC3)CCC[N+]=6CCC5)cc1)c(C)n2C(=O)c1ccc(Cl)cc1 ; field requested: AUC(0-t)
110

###

# Method Notes: Pharmacokinetics of fluorocoxib D in research dogs, plasma HPLC
# Assay type: in vivo, dog
# Details: female, beagle, dog, plasma, iv; 1 mg/kg i.v., six research dogs, mean ± S.D.
Endpoint Name: MRT (h)
Dear colleague, please return just the value in h, with no unit written.

Query (molecule): COc1ccc2c(c1)c(CC(=O)NCCCCNC(=O)c1ccc(C3=c4cc5c6c(c4Oc4c3cc3c7c4CCCN7CCC3)CCC[N+]=6CCC5)cc1)c(C)n2C(=O)c1ccc(Cl)cc1 ; field requested: MRT
1.46

###

# Method Notes: Pharmacokinetics of fluorocoxib D in research dogs, plasma HPLC
# Format: in vivo, dog
# Details: female, beagle, dog, plasma, iv; 1 mg/kg i.v., six research dogs, mean ± S.D.; read-out: t1/2 (terminal/elimination half-life) (converted)
Endpoint Name: half-life (min)
Dear colleague, please return just the value in min, with no unit written.

Query (molecule): COc1ccc2c(c1)c(CC(=O)NCCCCNC(=O)c1ccc(C3=c4cc5c6c(c4Oc4c3cc3c7c4CCCN7CCC3)CCC[N+]=6CCC5)cc1)c(C)n2C(=O)c1ccc(Cl)cc1 ; field requested: half-life
54.6
